Below, each entry is listed alongside its reported IC50.
# SYSTEM_TESTED: Tubulin (Bos taurus, UniProt Q6B856+Q862L2+Q862F3)
# ASSAY_DETAILS: Inhibition of bovine brain tubulin assessed as extent of assembly preincubated for 15 mins by turbidimetry

Please review the entries below; each comes with its answer.
[[record]]
structure_smiles = "COc1ccccc1-c1c2c(c(OC)c3c1OCO3)[C@H]([C@H]1OC(=O)c3c1ccc(OC)c3OC)N(C)CC2"
recorded_result = "> 400 µM"

[[record]]
structure_smiles = "COc1ccc2c(c1OC)C(=O)O[C@@H]2[C@H]1c2c(c(Br)c3c(c2OC)OCO3)CCN1C"
recorded_result = "> 400 µM"


Pending molecule:
Q) Requested field: IC50. Item: `COc1cccc(-c2c3c(c(OC)c4c2OCO4)[C@H]([C@H]2OC(=O)c4c2ccc(OC)c4OC)N(C)CC3)c1`
A) > 400 µM

meta.source: ChEMBL document CHEMBL3351414
